target: Polycomb protein EED (Homo sapiens); assay: Inhibition of EED in human G401 cells assessed as reduction in H3K27 methylation measured after 48 hrs by ELISA method; assay type: cell-based
pIC50: −log10 of the molar value.
measure: pIC50

Below, each entry is followed by its recorded pIC50 result.
N=C(N)N1CCCC(Cc2cccc3ccoc23)C1 (configuration not stated) = 5.60
Nc1ncc2n1CC(Cc1cccc3occc13)CC2 (configuration not stated) = 4.91
Nc1ncc2n1CC(Cc1cccc3c1OCO3)CC2 (configuration not stated) = 6.00
N=C(N)N1CCCC(Cc2cccc3occc23)C1 (configuration not stated) = 5.60
CC(C)c1nc(N)n2c1CCC(Cc1cccc3c1OCO3)C2 (configuration not stated) = 5.70

I: COc1ccc(F)c(CC2CCc3c(C(C)C)nc(N)n3C2)c1 (configuration not stated)
II: N=C(N)N1CCCC(Cc2cccc3c2OCO3)C1 (configuration not stated)
## Input # query: argmin of pIC50 over I and II Answer by stating the label of the chosen item.
## Output I

====

test: Dissociation constant, pKa of the compound by electrophoresis/potentiometric method; assay type: physicochemical
measure: pKa

c1cc(CC2CCCNC2)c2ccoc2c1 (stereo unspecified) = 9.8
Nc1ncc2n1CC(Cc1cccc3c1OCO3)CC2 (stereo unspecified) = 9.2
COc1cccc(CC2CCCNC2)c1 (stereo unspecified) = 9.9

====

target: UniProt:O75530; test: Inhibition of human PRC2-EED (76 to 441 residues) expressed in Escherichia coli BL21 (DE3) using histone H3[21 to 44, K27MeO] as substrate and SAM as co-factor measured after 2 hrs by LC-MS/MS method
measure: IC50 (µM)

Below, each entry is followed by its recorded IC50 result.
COc1cccc(CC2CCCNC2)c1 (configuration not stated) = 95
Nc1ncc2n1CC(Cc1cccc3c1OCO3)CC2 (configuration not stated) = 1.3
N=C(N)N1CCCC(Cc2cccc3ccoc23)C1 (configuration not stated) = 2.8
c1cc(CC2CCCNC2)c2c(c1)OCO2 (configuration not stated) = 35
CC(C)c1nc(N)n2c1CCC(Cc1ccccc1F)C2 (configuration not stated) = 7.9
Nc1ncc2n1CC(Cc1cccc3occc13)CC2 (configuration not stated) = 2.7
COc1cccc(CC2CCCN(C(=N)N)C2)c1 (configuration not stated) = 43
N=C(N)N1CCCC(Cc2cccc3occc23)C1 (configuration not stated) = 2.1

A: COc1cc(CC2CCCNC2)ccc1F (configuration not stated)
B: NC(=O)N1CCCC(Cc2cccc3ccoc23)C1 (configuration not stated)
## Input # query: argmin of IC50 over A and B Answer by stating the label of the chosen item.
## Output A
(A: 119 µM, B: 174 µM)

====

assay: Dissociation constant, pKa of the compound by electrophoresis/potentiometric method; type: physicochemical
measure: pKa

COc1cccc(CC2CCCN(C(=N)N)C2)c1 (stereo not drawn) = > 11

Record summary for N=C(N)N1CCCC(Cc2cccc3c2OCO3)C1 (stereo not drawn) : reported pKa = > 11

Record summary for N=C(N)N1CCCC(Cc2cccc3occc23)C1 (stereo not drawn) : reported pKa = > 11

====

target: Polycomb protein EED (Homo sapiens, UniProt O75530); assay: Inhibition of human PRC2-EED (76 to 441 residues) expressed in Escherichia coli BL21 (DE3) using histone H3[21 to 44, K27MeO] as substrate and SAM as co-factor measured after 2 hrs by LC-MS/MS method
Sequence (O75530 whole entry, the tested form may be a part): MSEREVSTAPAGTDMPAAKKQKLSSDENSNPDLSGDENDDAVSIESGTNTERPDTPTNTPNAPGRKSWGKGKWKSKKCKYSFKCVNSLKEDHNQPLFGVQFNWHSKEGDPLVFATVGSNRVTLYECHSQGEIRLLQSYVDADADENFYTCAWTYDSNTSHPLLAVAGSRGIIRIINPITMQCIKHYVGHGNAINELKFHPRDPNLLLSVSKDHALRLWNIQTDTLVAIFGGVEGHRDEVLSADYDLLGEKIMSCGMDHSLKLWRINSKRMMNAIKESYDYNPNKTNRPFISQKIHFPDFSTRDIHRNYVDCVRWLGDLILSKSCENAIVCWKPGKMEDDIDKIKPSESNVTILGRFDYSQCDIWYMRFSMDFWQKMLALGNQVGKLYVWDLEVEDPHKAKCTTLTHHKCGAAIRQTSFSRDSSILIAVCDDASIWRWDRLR
measure: IC50 (µM)

Below, each entry is followed by its recorded IC50 result.
N=C(N)N1CCCC(Cc2cccc3c2OCO3)C1 (configuration not stated) = 3.9
CC(C)c1nc(N)n2c1CCC(Cc1cccc3c1OCO3)C2 (configuration not stated) = 0.43
COc1ccc(F)c(CC2CCc3c(C(C)C)nc(N)n3C2)c1 (configuration not stated) = 1.3

a: c1cc(CC2CCCNC2)c2occc2c1 (configuration not stated)
b: c1cc(CC2CCCNC2)c2ccoc2c1 (configuration not stated)
## Input IC50 comparison. Which is larger, a or b ? Answer by stating the label of the chosen item.
## Output a
(a: 95 µM, b: 40 µM)
